Source listed as patent US20090298167A1.

Readings of A450 at 13 nM Ab in cell ELISA for the listed binders
Biological target: T1, cynomolgus monkey IL-21R expressed on CHO cells (cynomolgus monkey)
T1 construct: whole, on cells
Test: cell ELISA on transfected CHO cells, 13 nM IgG
# value in A450; strip the unit string

>  <Binder>
AbR (antibody, human IgG1, V domains shown, Purified form: human IgG1 double-mutant (L234A, G237A); Framework limits derived; also called VH3/VL18; VH3DM/VL18) VH: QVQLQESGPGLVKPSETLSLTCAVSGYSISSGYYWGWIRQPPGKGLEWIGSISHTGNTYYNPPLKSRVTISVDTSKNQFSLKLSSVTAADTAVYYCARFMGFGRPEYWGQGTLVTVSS VL: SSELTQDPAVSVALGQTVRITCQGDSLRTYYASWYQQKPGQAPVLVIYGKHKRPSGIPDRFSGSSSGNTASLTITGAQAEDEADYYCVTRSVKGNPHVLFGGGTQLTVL

>  <Units Symbol>
A450

>  <Value Measured>
1.35

$$$$

Data request: Query (binder): AbU (antibody, human IgG1, V domains shown, Human IgG1 triple-mutant (L234A, L235A, G237A); Framework limits derived; also called VHP/VL25; VHPTM/VL25) VH: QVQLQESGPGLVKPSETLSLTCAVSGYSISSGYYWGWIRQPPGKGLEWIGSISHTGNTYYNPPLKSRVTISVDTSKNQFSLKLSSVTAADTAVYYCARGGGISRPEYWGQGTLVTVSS VL: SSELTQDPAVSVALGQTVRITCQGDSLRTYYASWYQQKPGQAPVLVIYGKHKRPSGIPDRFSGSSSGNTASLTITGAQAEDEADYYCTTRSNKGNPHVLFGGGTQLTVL ; field requested: A450 at 13 nM Ab in cell ELISA
Data returned: 1.31
